B1: OR4K15 (parent)
chain: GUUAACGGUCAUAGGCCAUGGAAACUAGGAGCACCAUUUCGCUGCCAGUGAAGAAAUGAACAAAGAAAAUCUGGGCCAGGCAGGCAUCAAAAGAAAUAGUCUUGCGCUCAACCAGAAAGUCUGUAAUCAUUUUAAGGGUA

Variants of: B1
Test: self-cleavage, relative activity (ratio to wild type); higher = more cleavage; in vitro, sequencing; the parent is a self-cleaving ribozyme
self-cleavage below 1 gives 0 (no); self-cleavage at or above it gives 1 (yes).

Answered examples (4):
[
  {
    "sequence-chain": "GUUAACGGUCAUAGGCCAUGGAAACUAGGAGCACCAUUUCGCUGCCAGUGAAGAAAUGAACAAAGAAAAUCUGGGCCAGGCAGGCUUCAAAAGAAAUAGUCUUGCGCUCAACCAGAAAGUCUGUAAUCAUUUUAAGGGUA",
    "label": "1 (yes)"
  },
  {
    "sequence-chain": "GUCAACGGUCAUAGGCCAUGGAAACUAGGAGCACCAUUUCGCUGCCUGUGAAGAAAUGAACAAAGAAAAUCUGGGCCAGGCAGGCAUCAAAAGAAAUAGUCUUGCGCUCAACCAGAAAGUCUGUAAUCAUUUUAAGGGUA",
    "label": "0 (no)"
  },
  {
    "sequence-chain": "GUUAACGGUCAAAGGCCAUGGAAACUAGGAGCACCAUUUCGCUGCCAGCGAAGAAAUGAACAAAGAAAAUCUGGGCCAGGCAGGCAUCAAAAGAAAUAGUCUUGCGCUCAACCAGAAAGUCUGUAAUCAUUUUAAGGGUA",
    "label": "1 (yes)"
  },
  {
    "sequence-chain": "GUUAACGGUCAUAGGCCAUGGAAACUAGGAGCACCAUUUCGCUGCCAGUGAAGAAAUGAACAAAGAAAAUCUGGGCCAGGCAGGCAUCAAAAGAAAUAGUCUUGCGCUCUACCGGAAAGUCUGUAAUCAUUUUAAGGGUA",
    "label": "0 (no)"
  }
]

Problem: Hi team, for GUUAACGGUCAUAGGCCAUGGUAACUAGGAGCACCAUUUCGCAGCCAGUGAAGAAAUGAACAAAGAAAAUCUGGGCCAGGCAGGCAUCAAAAGAAAUAGUCUUGCGCUCAACCAGAAAGUCUGUAAUCAUUUUAAGGGUA , is the recorded self-cleavage at or above 1?
Solution: 1 (yes)

Problem: Hi team, for GUUAACGGUCAUAGGCCAUGGAAACUAGGAGCACCAUUUCGCUGCCGGUGAAGAAAUGAACAAAGAAAAUCUGGGCCAGGCAGGCAUCAAAAGAAAUAGUCUUGCGCUCAACCAGAAAGUCUGUAACCAUUUUAAGGGUA , is the recorded self-cleavage at or above 1?
Solution: 0 (no)

Problem: Hi team, for GAUAACGGUCAUAGGCCAUGGAAACUAGGAGCACCAUUUCGCUGCCAGUGAAGGAAUGAACAAAGAAAAUCUGGGCCAGGCAGGCAUCAAAAGAAAUAGUCUUGCGCUCAACCAGAAAGUCUGUAAUCAUUUUAAGGGUA , is the recorded self-cleavage at or above 1?
Solution: 0 (no)

Problem: Hi team, for GUUAACGGUCAUAGGCCAUGGGAACUAGGAGCACCAUUUCGCUGCCAGUGAAGAAAUGAACAAAGAAAAUCUGGGCCAGGCAGGCAUCAAAAGAAAUAGUCUUGCGCUCCACCAGAAAGUCUGUAAUCAUUUUAAGGGUA , is the recorded self-cleavage at or above 1?
Solution: 0 (no)

Problem: Hi team, for GUUAACGGUCAUAGGCCAUGGAAACUAGGUGCACCAUUUCGCUGCCAGUGGAGAAAUGAACAAAGAAAAUCUGGGCCAGGCAGGCAUCAAAAGAAAUAGUCUUGCGCUCAACCAGAAAGUCUGUAAUCAUUUUAAGGGUA , is the recorded self-cleavage at or above 1?
Solution: 1 (yes)

Problem: Hi team, for GUAAACGGUCGUAGGCCAUGGAAACUAGGAGCACCAUUUCGCUGCCAGUGAAGAAAUGAACAAAGAAAAUCUGGGCCAGGCAGGCAUCAAAAGAAAUAGUCUUGCGCUCAACCAGAAAGUCUGUAAUCAUUUUAAGGGUA , is the recorded self-cleavage at or above 1?
Solution: 1 (yes)

Problem: Hi team, for GUUAACGGUCAUAGGCCAUGGAAACUAGGAGCACCAUUUCGCUGCCAGUGAAUAAAUGAACAAAGAAAAUCUGGGCCAGGCAGGCAUCAAAAGAAAUAGUCUUGCGCUCAACCAGAAGGUCUGUAAUCAUUUUAAGGGUA , is the recorded self-cleavage at or above 1?
Solution: 1 (yes)

Problem: Hi team, for GUUAACGGUCGUAGGCCAUGGAAACUAGGAGCACCAUUUCGCUGCCAGUGAAGAAAUGAACAAAGAAAAUCUGGGCCAGGCAGGCAUCAAAAGAAAUAGUCUUGCGCUCAACCAGAAAGUCUGUAAUCAUUUUAAGGGCA , is the recorded self-cleavage at or above 1?
Solution: 1 (yes)

Problem: Hi team, for GUUAACGGUCAUAGGCCAUGGAAACUAGGAGCACCAUUUCGCUGCCAGUGAAGAAAUGAACAAAGAAAAUCUGGGCCCGGCAGGCAUCAAAAGAAAUAGUCUUGCGCUCAACCAGAAAGUCUGUAAUCAUCUUAAGGGUA , is the recorded self-cleavage at or above 1?
Solution: 0 (no)
